Give measured pIC50 for each item. Keep answers brief.
biological target: RET kinase G810S (Homo sapiens, UniProt P07949, G810S); assay: RET Enzyme Assay (HTRF KinEASE-TK), G810S
Sequence (P07949 29-1114 G810S): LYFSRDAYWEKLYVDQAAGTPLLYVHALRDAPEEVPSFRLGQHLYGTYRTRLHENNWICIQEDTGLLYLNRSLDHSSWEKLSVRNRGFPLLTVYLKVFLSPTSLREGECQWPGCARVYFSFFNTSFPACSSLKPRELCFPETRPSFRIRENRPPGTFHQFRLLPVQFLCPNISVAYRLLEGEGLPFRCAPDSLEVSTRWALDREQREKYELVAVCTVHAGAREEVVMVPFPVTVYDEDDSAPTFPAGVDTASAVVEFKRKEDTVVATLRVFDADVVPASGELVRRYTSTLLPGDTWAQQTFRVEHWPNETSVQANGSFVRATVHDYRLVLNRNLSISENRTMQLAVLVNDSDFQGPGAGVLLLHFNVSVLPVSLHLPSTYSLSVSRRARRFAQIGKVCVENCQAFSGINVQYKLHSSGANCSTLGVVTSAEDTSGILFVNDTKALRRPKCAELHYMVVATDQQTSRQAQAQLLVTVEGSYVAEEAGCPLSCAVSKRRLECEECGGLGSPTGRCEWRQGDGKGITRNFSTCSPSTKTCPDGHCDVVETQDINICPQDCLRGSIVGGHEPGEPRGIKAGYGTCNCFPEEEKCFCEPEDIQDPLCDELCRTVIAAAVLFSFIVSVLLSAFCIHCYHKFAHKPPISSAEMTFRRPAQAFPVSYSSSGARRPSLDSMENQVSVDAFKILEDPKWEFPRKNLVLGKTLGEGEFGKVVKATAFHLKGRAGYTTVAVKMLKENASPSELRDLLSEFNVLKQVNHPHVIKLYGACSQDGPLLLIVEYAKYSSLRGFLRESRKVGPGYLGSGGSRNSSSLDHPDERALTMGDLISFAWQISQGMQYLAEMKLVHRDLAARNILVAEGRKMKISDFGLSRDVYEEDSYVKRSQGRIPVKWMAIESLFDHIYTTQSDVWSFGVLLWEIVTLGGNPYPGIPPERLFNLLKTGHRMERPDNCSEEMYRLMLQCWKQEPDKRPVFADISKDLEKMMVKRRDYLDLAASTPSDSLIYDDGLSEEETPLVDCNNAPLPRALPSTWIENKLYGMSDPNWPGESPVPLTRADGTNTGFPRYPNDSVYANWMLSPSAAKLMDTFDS
Kindly note that pIC50 refers to -log10 of the concentration in mol/L and answer with the value alone.

Give the reported pIC50 for this compound. CC(C)n1nc(-c2cc(C3CC3)nn2C2CCCCO2)c2c(N)ncnc21 (stereo not shown) [Example 19]
7.62

Give the reported pIC50 for this compound. CC(C)n1nc(-c2cc(C(F)(F)F)nn2C2CCCCO2)c2c(N)ncnc21 (stereo not shown) [Example 25]
7.10

Give the reported pIC50 for this compound. CC(C)n1nc(-c2noc(C3CC3)c2C2=CCOCC2)c2c(N)ncnc21 [Example 4]
7.43

Give the reported pIC50 for this compound. Cc1cc(-c2nn(C(C)C)c3ncnc(N)c23)n(C2CCCCO2)n1 (stereo not shown) [Example 21]
7.75

Give the reported pIC50 for this compound. C=Cc1cc(-c2nn(C(C)C)c3ncnc(N)c23)n(C2CCCCO2)n1 (stereo not shown) [Example 22]
7.89

Give the reported pIC50 for this compound. CC(C)n1nc(-c2noc(C3CC3)c2-c2cccnc2)c2c(N)ncnc21 [Example 7]
7.41

Give the reported pIC50 for this compound. CC(C)n1nc(-c2noc(C3CC3)c2Br)c2c(N)ncnc21 [Example 1]
7.93

Give the reported pIC50 for this compound. CC(C)n1nc(-c2ccnn2C2CCCCO2)c2c(N)ncnc21 (stereo not shown) [Example 23]
7.34

Give the reported pIC50 for this compound. CC(C)n1nc(C2CC2)cc1-c1nn(C(C)C)c2ncnc(N)c12 [Example 27]
6.39

Give the reported pIC50 for this compound. CC(C)n1nc(-c2noc(C3CC3)c2-c2ncccn2)c2c(N)ncnc21 [Example 11]
8.31
